Tested on: γ-PAK
Sequence (Q29502 249-500 limits assumed): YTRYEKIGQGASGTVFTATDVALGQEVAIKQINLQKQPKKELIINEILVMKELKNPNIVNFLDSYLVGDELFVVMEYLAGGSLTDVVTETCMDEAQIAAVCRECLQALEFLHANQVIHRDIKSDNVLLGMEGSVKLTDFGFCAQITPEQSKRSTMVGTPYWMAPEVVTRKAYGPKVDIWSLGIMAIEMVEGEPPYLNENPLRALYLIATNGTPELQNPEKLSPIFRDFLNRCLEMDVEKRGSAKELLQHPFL
experimental details: Kinetic parameters (Km, Vmax) for phosphorylation of synthetic peptides by γ-PAK
Type: biochemical, rabbit
reported conditions: Table 4, influence of proline and glycine; read-out: Km
No end group written: not given here.
# reported Km; entries follow

substance	Km
AKRGSAA (AKRGSAA-NH2) [synthetic peptide with an amide C-terminal group]	3520 µM
PKRASAA (PKRASAA-NH2) [synthetic peptide with an amide C-terminal group]	240 µM
AKRASPA (AKRASPA-NH2) [synthetic peptide with an amide C-terminal group]	> 5000 µM
AKRASGA (AKRASGA-NH2) [synthetic peptide with an amide C-terminal group]	2090 µM
AKRASAA (AKRASAA-NH2) [synthetic peptide with an amide C-terminal group]	460 µM
AKRPSAA (AKRPSAA-NH2) [synthetic peptide with an amide C-terminal group]	> 5000 µM
